Origin of measurements: ChEMBL document CHEMBL2094269

PROCEDURE DETAILS: DNDI: Cytotoxicity against human MRC-5 lung fibroblast cells.
STUDY CONDITIONS: IC50
pIC50: −log10 of the molar value.
PARAMETER: pIC50

MOLECULE	PARAMETER	RESULT
O=C1C=C/C(=N\Nc2ccc3c(c2)OCCO3)c2cccnc21	pIC50	< 4.68
CC(C)(C)c1cc(C(c2ccccn2)N2CCOCC2)cc(C(C)(C)C)c1O (stereo not given)	pIC50	< 4.38
CC1(C)CCC[C@]2(C)C=C(C3OCCO3)C(=O)C[C@@H]12	pIC50	< 4.38
COC(=O)c1ccccc1OCCCON1C(N)=NC(N)=NC1(C)C	pIC50	< 6.38
O=S(=O)(Nc1ccc(O)c(-c2c(O)ccc3ccccc23)c1)c1cccs1	pIC50	< 4.38
CCCN1C(=O)C(O)(CC(=O)c2cccnc2)c2cc(Br)ccc21 (stereo not given)	pIC50	< 4.38
O=C(O)c1n[nH]c2c1CCCCCC2	pIC50	< 5.38
O=C(CS(=O)(=O)c1ccc(F)cc1)Nc1nc(-c2ccccn2)cs1	pIC50	< 4.98
CCCCCOc1ccc(NC(=O)C(=O)NC2CC(C)(C)NC(C)(C)C2)cc1	pIC50	< 4.38
Oc1cccnc1NC(c1ccc(Cl)cc1)c1ccc2cccnc2c1O (stereo not given)	pIC50	< 4.38
CC(C)n1c(=N)n(CCOc2ccc(Br)cc2)c2ccccc21	pIC50	< 5.38
O=C1/C(=C\c2ccccc2F)COC/C1=C\c1ccccc1F	pIC50	< 4.38
CCCCC1=NN(C(=O)c2ccccn2)C(O)(C(F)(F)F)C1 (stereo not given)	pIC50	< 4.68
CCCn1c(=O)c2c(nc3n2CCN3Cc2ccco2)n(C)c1=O	pIC50	< 4.38
Cc1ccc(C(=O)O/N=C(\N)Cc2cccs2)c(Cl)c1	pIC50	< 4.38

----------
PROCEDURE DETAILS: DNDI: Cytotoxicity against human MRC-5 lung fibroblast cells.
STUDY CONDITIONS: IC50
pIC50: −log10 of the molar value.

MOLECULE	pIC50
Cc1ccc(CN(C)C)c(O)c(=O)c1	< 4.68
CN(C)c1ccc(/C=C/c2sc3ccc4ccccc4c3[n+]2C)cc1	< 5.68
CCCc1c(CC)c(=N)c2ccccc2n1C	< 4.38
COc1ccc(/C(N)=N/OC(=O)C23CC4CC(CC(C4)C2)C3)cc1OC	< 4.38
Cc1cc(NCCN2CCOCC2)c2ccc3ccccc3c2n1	< 4.68
CCc1cc2c(cc1C(C)N)C(C)(C)CCC2(C)C (stereo not drawn)	< 4.68
CN(CCCNC(=O)c1n[nH]c2c1COc1ccccc1-2)C1CCCCC1	< 4.68
COC(=O)c1nc(-c2ccccc2)nc(-c2ccccc2)c1C(=O)OC	< 5.38
c1coc(CNc2c3ccccc3nc3ccccc23)c1	< 5.38
NC(N)=N/N=C1/C(=O)Nc2ccc(F)cc21	< 4.38
CCN(CC)c1ccc(/C=N\NC(=O)Cn2nnc3ccccc32)c(O)c1	< 4.38
O=c1ccccc2c(/C=C/c3cccc(Cl)c3Cl)nn(-c3ccccc3)c12	< 4.98
NC1CCCc2c1[nH]c1ccc(Cl)cc21 (stereo not drawn)	< 4.68
Cc1ccc2[nH]c(/C(C#N)=C/c3ccc(O)c(O)c3)nc2c1	< 4.68
CC1=NN(c2ccc3cccc(O)c3n2)C(=O)C1	< 4.98
CCOC(=O)CNC(=O)C(Cc1ccccc1)NS(=O)(=O)c1cccs1 (stereo not drawn)	< 4.38
Cc1cc(NC2CCCCC2)nc(NCc2ccccc2)n1	< 4.38
CCOC(=O)N/N=C\c1ccc(-c2cccc(C(F)(F)F)c2)o1	< 4.38
COc1ccc(C(CC(=O)c2ccncc2)SCc2ccco2)cc1 (stereo not drawn)	< 4.38
CC1(C)CC(=O)c2sc(NC(=O)c3sc4ccccc4c3Cl)nc2C1	< 4.38
Cc1cccc(C(=O)O/N=C(\N)c2ccncc2)c1	< 4.38
Oc1c(C(Nc2ccccn2)c2ccccc2Cl)ccc2cccnc12 (stereo not drawn)	< 4.68
CC1CCC2C(=O)N(c3ccc(Cc4ccncc4)cc3)C(=O)C2C1 (stereo not drawn)	< 4.38
COC(=O)C1=C(OC)C(=O)OC12C=CC(=O)C=C2	5.97
O=C(NCCc1csc(-c2ccc(F)cc2)n1)c1ccc(Br)o1	< 4.38
C(=C\c1ccc(OC2CN3CCC2CC3)cc1)/c1ccccc1 (stereo not drawn)	< 4.38
COc1ccc(C(=O)O/N=C(\N)Cc2ccc(Cl)cc2)c(OC)c1	< 4.68
O=C1Nc2ccc(OC(F)(F)F)cc2C1=O	< 4.38
COC(=O)c1ccccc1N/N=C1\C(=N)ON=C1N	< 4.38
Cc1cc(NCCN2CCCCC2)c2ccc3ccccc3c2n1	< 4.68
O=C(Nc1c2ccccc2nc2ccccc12)c1ccccc1F	< 5.38
CC(C)Nc1ccc(Nc2ccnc3cc4ccccc4cc23)cc1	< 4.38
C[n+]1ccc(/C=C/c2c[nH]c3ccc(Br)cc23)cc1	< 5.38
CCN(CC)CCNc1cc(C)nc2c1C(=O)C(=O)C=C2N1CCCCC1	5.20
Cn1cnn(C2CC(=O)C3OCC2O3)c1=S (stereo not drawn)	< 4.68
Cc1ccccc1C(=O)Nc1ccccn1	< 4.38
Cc1cc(C)nc(NC(c2ccco2)c2ccc3cccnc3c2O)n1 (stereo not drawn)	< 4.38
CCCC(=O)NC(c1ccccc1Cl)c1cc(Cl)c2cccnc2c1O (stereo not drawn)	< 4.68
